# tested on: CD3ε (SPR analyte) (UniProt P07766 23-126, limits assumed)
# Sequence (P07766 23-126 limits assumed): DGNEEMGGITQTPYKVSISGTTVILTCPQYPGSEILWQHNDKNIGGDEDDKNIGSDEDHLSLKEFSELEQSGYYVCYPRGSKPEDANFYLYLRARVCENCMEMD
# assay remarks: SPR, scFv-Fc
metric name: koff (s⁻¹)
Kindly answer with a numeric value in s⁻¹, unit omitted.

humanized scFv BG564P (scFv-Fc) (Fc fusion, BG563P with N30S and N100S in VH; not shown: human IgG1 Fc region, scFv fused to its N-terminus) scFv: EVQLVESGGGLVQPGGSLRLSCAASGFTFSTYAMNWVRQAPGKGLEWVGRIRSKYNNYATYYADSVKGRFTISRDDAKNSLYLQMNSLRAEDTAVYYCVRHGNFGSSYVSWFAYWGQGTLVTVSSGGGGSGGGGSGGGGSEIVVTQSPATLSVSPGERATLSCRSSTGAVTTSNYANWVQQKPGQAPRGLIGGTNKRAPGIPARFSGSLSGDEATLTISSLQSEDFAVYYCALWYSNLWVFGGGTKVEIK = 0.000576
humanized sp34 scFv BG561P (scFv-Fc) (Fc fusion, scFv (VH-3xG4S-VK) fused to N-terminus of a human IgG1 Fc region; also called scFv-ized BG56P; not shown: human IgG1 Fc region, scFv fused to its N-terminus) scFv: EVQLVESGGGLVQPGGSLRLSCAASGFTFNTYAMNWVRQAPGKGLEWVARIRSKYNNYATYYADSVKDRFTISRDDAKNSLYLQMNSLRAEDTAVYYCVRHGNFGNSYVSWFAYWGQGTLVTVSSGGGGSGGGGSGGGGSEIVLTQSPATLSVSPGERATLSCRSSTGAVTTSNYANWVQQKPGQAPRGLIGGTNKRAPGIPARFSGSLSGDEATLTISSLQSEDFAVYYCALWYSNLWVFGGGTKVEIK = 0.00036
humanized scFv BG563P (scFv-Fc) (Fc fusion, BG561P with L4V in VL and A49G, D65G in VH; not shown: human IgG1 Fc region, scFv fused to its N-terminus) scFv: EVQLVESGGGLVQPGGSLRLSCAASGFTFNTYAMNWVRQAPGKGLEWVGRIRSKYNNYATYYADSVKGRFTISRDDAKNSLYLQMNSLRAEDTAVYYCVRHGNFGNSYVSWFAYWGQGTLVTVSSGGGGSGGGGSGGGGSEIVVTQSPATLSVSPGERATLSCRSSTGAVTTSNYANWVQQKPGQAPRGLIGGTNKRAPGIPARFSGSLSGDEATLTISSLQSEDFAVYYCALWYSNLWVFGGGTKVEIK = 0.000772

Let us move to another entry and its koff.
Looking up humanized scFv BG562P (scFv-Fc) (Fc fusion, BG561P with L4V in VL; not shown: human IgG1 Fc region, scFv fused to its N-terminus) scFv: EVQLVESGGGLVQPGGSLRLSCAASGFTFNTYAMNWVRQAPGKGLEWVARIRSKYNNYATYYADSVKDRFTISRDDAKNSLYLQMNSLRAEDTAVYYCVRHGNFGNSYVSWFAYWGQGTLVTVSSGGGGSGGGGSGGGGSEIVVTQSPATLSVSPGERATLSCRSSTGAVTTSNYANWVQQKPGQAPRGLIGGTNKRAPGIPARFSGSLSGDEATLTISSLQSEDFAVYYCALWYSNLWVFGGGTKVEIK , I see its koff listed as 0.000367
